Readout Type: logP
# print the numeric value only

# count of solved cases: 5
Task: Which logP value is on record for Clc1ccc(-c2cc(Cl)c(Cl)c(Cl)c2Cl)c(Cl)c1 ?
Result: 6.8

Task: Which logP value is on record for Clc1cc(Cl)cc(-c2c(Cl)c(Cl)cc(Cl)c2Cl)c1 ?
Result: 6.68

Task: Which logP value is on record for Clc1cc(Cl)c(Cl)c(-c2c(Cl)cccc2Cl)c1Cl ?
Result: 6.1

Task: Which logP value is on record for Clc1cc(Cl)c(-c2cc(Cl)c(Cl)cc2Cl)c(Cl)c1 ?
Result: 6.46

Task: Which logP value is on record for Clc1cccc(-c2c(Cl)c(Cl)c(Cl)c(Cl)c2Cl)c1 ?
Result: 6.84

Continuing:
Task: Which logP value is on record for Clc1cc(Cl)c(-c2cc(Cl)c(Cl)c(Cl)c2)c(Cl)c1 ?
Result: 6.74

Task: Which logP value is on record for Clc1ccc(-c2c(Cl)c(Cl)c(Cl)c(Cl)c2Cl)cc1 ?
Result: 6.87

Task: Which logP value is on record for Clc1ccc(-c2c(Cl)c(Cl)cc(Cl)c2Cl)c(Cl)c1 ?
Result: 6.52

Task: Which logP value is on record for Clc1cccc(-c2c(Cl)cc(Cl)c(Cl)c2Cl)c1Cl ?
Result: 6.43

* * *

Measured logP accompanies every entry in the list below.
# print the numeric value only

# count of solved cases: 4
Task: Which logP value is on record for Clc1cc(Cl)c(Cl)c(-c2cc(Cl)cc(Cl)c2Cl)c1 ?
Result: 6.63

Task: Which logP value is on record for Clc1cc(-c2c(Cl)cccc2Cl)c(Cl)c(Cl)c1Cl ?
Result: 6.5

Task: Which logP value is on record for Clc1cc(Cl)c(-c2cc(Cl)cc(Cl)c2Cl)c(Cl)c1 ?
Result: 6.45

Task: Which logP value is on record for Clc1cc(Cl)c(Cl)c(-c2cc(Cl)c(Cl)cc2Cl)c1 ?
Result: 6.71

Continuing:
Task: Which logP value is on record for Clc1cc(Cl)c(Cl)c(-c2ccc(Cl)c(Cl)c2Cl)c1 ?
Result: 6.79

Task: Which logP value is on record for Clc1cc(Cl)c(-c2c(Cl)cccc2Cl)c(Cl)c1Cl ?
Result: 6.28

Task: Which logP value is on record for Clc1cc(Cl)c(Cl)c(-c2cc(Cl)c(Cl)c(Cl)c2)c1 ?
Result: 7.02

Task: Which logP value is on record for Clc1ccccc1-c1c(Cl)c(Cl)c(Cl)c(Cl)c1Cl ?
Result: 6.49

Task: Which logP value is on record for Clc1cc(Cl)c(Cl)c(-c2c(Cl)ccc(Cl)c2Cl)c1 ?
Result: 6.41

Task: Which logP value is on record for Clc1cc(Cl)c(-c2c(Cl)ccc(Cl)c2Cl)cc1Cl ?
Result: 6.46

Task: Which logP value is on record for Clc1ccc(-c2c(Cl)ccc(Cl)c2Cl)c(Cl)c1Cl ?
Result: 6.61

* * *

Readout Type: logP
# print the numeric value only

# count of solved cases: 4
Task: Which logP value is on record for Clc1cccc(-c2c(Cl)c(Cl)cc(Cl)c2Cl)c1Cl ?
Result: 6.42

Task: Which logP value is on record for Clc1cc(Cl)cc(-c2c(Cl)cc(Cl)c(Cl)c2Cl)c1 ?
Result: 6.68

Task: Which logP value is on record for Clc1cc(Cl)c(-c2c(Cl)ccc(Cl)c2Cl)c(Cl)c1 ?
Result: 6.31

Task: Which logP value is on record for Clc1cc(Cl)cc(-c2cc(Cl)c(Cl)c(Cl)c2Cl)c1 ?
Result: 7.01

Continuing:
Task: Which logP value is on record for Clc1ccc(Cl)c(-c2c(Cl)ccc(Cl)c2Cl)c1Cl ?
Result: 6.27

Hello, the source for this data is the SangsterLogP compilation, in case you need it.
